Test: chemical genetic growth profiling, strain panel (AID 1159580);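 also: tested at 20 µM; growth read once vehicle control cultures reached saturation at 30 °C; 1 = growth at the plate median or of vehicle wells; lower values mean less growth of the strain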
Conditions: S. cerevisiae deletion strains, growth OD, locus YPL055C, strain LGE1, stronger effect = lower value
About 2,000 (36%) of roughly 5,500 compounds were called active. Another 18% or so got no clear call; they are omitted. This is one part of the list.
QUANTITY KIND: normalized growth
Answer as a number with no unit attached.

Reference set (4 entries):
{"COMPOUND": "O=C(NC(=S)NCc1ccncc1)c1ccccc1", "normalized growth": 1}
{"COMPOUND": "CCC(C(=O)Nc1ccc(C(F)(F)F)cc1)c1ccccc1 (configuration not stated)", "normalized growth": 1.01}
{"COMPOUND": "O=C(Nc1ccc(C(F)(F)F)cc1)Nc1ccccc1C(=O)O", "normalized growth": 0.996}
{"COMPOUND": "CCN(CC)CCOc1ccc2c(c1)C(=O)c1cc(OCCN(CC)CC)ccc1-2", "normalized growth": 1.02}

Prompt line: Given the compound `CN(CCOc1ccc(C[C@H](Nc2ccccc2C(=O)c2ccccc2)C(=O)O)cc1)c1ccccn1` , what is its reported normalized growth?
Response line: 1

Prompt line: Which normalized growth value belongs to `CC(C)c1ccc(NC(=S)NC(=O)c2ccc(C(F)(F)F)cc2)cc1` ?
Response line: 0.997

Prompt line: Look at this compound and give its reported normalized growth. `C#CCOc1c(Cl)cccc1Cl`
Response line: 0.985

====

Assay: chemical genetic growth profiling, strain panel (AID 1159580)
Details: S. cerevisiae deletion strains, growth OD, locus YNL224C, strain SQS1, stronger effect = lower value
The campaign covered roughly 5,500 compounds. About 2,000 (36%) were called active. Inconclusive results (about 18%) are left out. Some of the results follow.
# normalized growth values compiled below
// return just the number, without any unit appended

Field: example entries. Status: answers known.
{"COMPOUND": "O=C(O)c1cccnc1Nc1cccc(C(F)(F)F)c1", "REPORTED VALUE": 0.969}
{"COMPOUND": "C=C(C)C1CC=C(C(=O)O)CC1 (stereo not drawn)", "REPORTED VALUE": 1.01}
{"COMPOUND": "C[C@H](Cc1ccc(O)c(O)c1)[C@@H](C)Cc1ccc(O)c(O)c1", "REPORTED VALUE": 0.966}
{"COMPOUND": "CCN(CC)CCNC(=O)c1cc(S(C)(=O)=O)ccc1OC", "REPORTED VALUE": 1}
{"COMPOUND": "O=S(=O)(O)C1CCNCC1", "REPORTED VALUE": 0.995}
{"COMPOUND": "CC1(C)CCC2=C(O1)c1ccccc1C(=O)C2=O", "REPORTED VALUE": 1}

Prompt line: State the recorded normalized growth for this entry: `CCSC(N)=Nc1ccc(C(F)(F)F)cc1`
Response line: 0.997

Prompt line: Please report the recorded normalized growth for `O=[N+]([O-])c1cc(O)c(O)c([N+](=O)[O-])c1` .
Response line: 0.977

Prompt line: Which value of normalized growth has been reported for `COc1ccc2c(c1)[C@@]13CCCC[C@H]1[C@@H](C2)NCC3` in the records?
Response line: 1.01

====

Experiment: chemical genetic growth profiling, strain panel (AID 1159580)
Details: S. cerevisiae deletion strains, growth OD, locus YIL073C, strain SPO22, stronger effect = lower value
Out of some 5,500 compounds screened, about 2,000 (36%) were called active. Roughly 18% stayed inconclusive and do not appear here. This is one part of the list.
QUANTITY KIND: normalized growth
No unit in the answer, only the number.

Field: example entries. Status: answers known.
{"COMPOUND": "Nc1ncnc2c1ncn2C1C[C@H](O)[C@@H](CO)O1 (stereo not given in full)", "REPORTED VALUE": 0.994}
{"COMPOUND": "CCCCC1=NC2(CCCC2)C(=O)N1Cc1ccc(-c2ccccc2-c2nn[nH]n2)cc1", "REPORTED VALUE": 1.01}
{"COMPOUND": "C1CNCCN1", "REPORTED VALUE": 0.983}
{"COMPOUND": "C1CCN2C[C@@H]3C[C@H](CN4CCCC[C@@H]34)[C@H]2C1", "REPORTED VALUE": 1.02}

Then this compound:
Prompt line: normalized growth lookup needed for O=C(O)CCCCC1CCSS1 (stereo not given) , thanks.
Response line: 0.978

====

Assay: chemical genetic growth profiling, strain panel (AID 1159580);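 also: tested at 20 µM; growth read once vehicle control cultures reached saturation at 30 °C; 1 = growth at the plate median or of vehicle wells; lower values mean less growth of the strain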
Conditions: S. cerevisiae deletion strains, growth OD, locus YLR058C, strain SHM2 (second series), stronger effect = lower value
Screen size: about 5,500 compounds; about 2,000 (36%) were called active. Not shown: some 18% with an inconclusive outcome. This is one part of the list.
# normalized growth per record follows
Please respond with just the number, no unit label.

Prompt line: Can you look up the measured normalized growth of `COC(=O)c1cc(OC)c(OC)cc1-n1c(C)ccc1C` for me?
Response line: 0.995

Prompt line: # normalized growth lookup, item `Cc1[nH]ncc1-c1ccccc1`
Response line: 0.986

Prompt line: Field request: normalized growth | item: `CCOC(=O)N/N=C\c1cccs1`
Response line: 1.02

====

Experiment: chemical genetic growth profiling, strain panel (AID 1159580);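 also: tested at 20 µM; growth read once vehicle control cultures reached saturation at 30 °C; 1 = growth at the plate median or of vehicle wells; lower values mean less growth of the strain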
Details: S. cerevisiae deletion strains, growth OD, locus YBL061C, strain skt5, stronger effect = lower value
Out of some 5,500 compounds screened, about 2,000 (36%) were called active. Another 18% or so got no clear call; they are omitted. Some of the results follow.
QUANTITY KIND: normalized growth

Sample records with normalized growth:
{"COMPOUND": "CCOP(=S)(OCC)SCn1c(=O)oc2cc(Cl)ccc21", "QUANTITY KIND": "normalized growth", "REPORTED VALUE": "0.949 (inactive)"}
{"COMPOUND": "Nc1ccc(S(=O)(=O)Nc2ccc(Cl)nn2)cc1", "QUANTITY KIND": "normalized growth", "REPORTED VALUE": "0.984 (inactive)"}
{"COMPOUND": "CCC(Cc1c(I)cc(I)c(N)c1I)C(=O)O (centres undefined)", "QUANTITY KIND": "normalized growth", "REPORTED VALUE": "0.955 (inactive)"}

Next up:
Prompt line: Given `CS(=O)(=O)CCCCN=C=S` , state its recorded normalized growth.
Response line: 0.746 (active)

====

Experiment: chemical genetic growth profiling, strain panel (AID 1159580);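 also: tested at 20 µM; growth read once vehicle control cultures reached saturation at 30 °C; 1 = growth at the plate median or of vehicle wells; lower values mean less growth of the strain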
Conditions: S. cerevisiae deletion strains, growth OD, locus YPL241C, strain CIN2, stronger effect = lower value
Screen size: about 5,500 compounds; about 2,000 (36%) were called active. Not shown: some 18% with an inconclusive outcome. The list shows a part of the results.
QUANTITY KIND: normalized growth

{"COMPOUND": "CN1CCCC12NCCc1c2[nH]c2ccccc12 (stereo unspecified)", "REPORTED VALUE": "0.969 (inactive)"}
{"COMPOUND": "CC1(C)C(=O)C=CC2(C)C3CCC4(C)C(c5ccoc5)CC5OC54C3C(O)CC12 (stereo unspecified)", "REPORTED VALUE": "0.995 (inactive)"}

Prompt line: What does the data say about its normalized growth? Entry: `COC(C)(C)CCC[C@H](C)C/C=C/C(C)=C/C(=O)OC(C)C`
Response line: 0.999 (inactive)

Prompt line: Which value of normalized growth has been reported for CC1(C)C(C(Cl)Cl)C2(Cl)C(Cl)C(Cl)C1(Cl)C2(Cl)Cl (stereo unspecified) in the records?
Response line: 0.988 (inactive)

Prompt line: // returns reported normalized growth for input `Cc1occc(=O)c1O`
Response line: 1 (inactive)

Prompt line: Find the recorded normalized growth belonging to CC(=O)OC1CC(OC(C)=O)C2(C)C(CC(OC(C)=O)C3(C)C2CCC2(C)C(c4ccoc4)CC4OC423)C1(C)C (stereo unspecified) and report it.
Response line: 1.01 (inactive)

Prompt line: GET /values?readout=normalized growth&item= O=[N+]([O-])c1ccc(CSc2ncnc3c2ncn3[C@@H]2O[C@H](CO)[C@H](O)C2O)cc1 (stereo partly specified)
Response line: 1.01 (inactive)

Prompt line: May I ask what normalized growth has been recorded for `O=S(=O)(O)C1CCNCC1` ?
Response line: 1 (inactive)

Prompt line: What value of normalized growth has been recorded for this entry: `N#Cc1c(N)sc2c1CCCCC2`
Response line: 0.846 (active)

Prompt line: Tell me the measured normalized growth of `C/C=C/c1ccc2c(c1)OCO2` , please.
Response line: 1.01 (inactive)

Prompt line: Query: normalized growth; subject: `Nc1ncnc2c1ncn2[C@@H]1O[C@H](CO)[C@@H](O)[C@H]1O`
Response line: 0.99 (inactive)

Prompt line: Consider the compound `Cc1occc(=O)c1/C=C/O` and give its measured normalized growth.
Response line: 1 (inactive)

Prompt line: Suppose we examine the compound `CN(/N=C\c1ccccc1)c1ncc(C(F)(F)F)cc1Cl` ; what normalized growth value has been reported?
Response line: 1.02 (inactive)

Prompt line: Please look up its normalized growth: `CC(C)(C)NC[C@@H](O)COc1nsnc1N1CCOCC1`
Response line: 0.992 (inactive)

Prompt line: Give its normalized growth value. Item: `CCCc1occc(=O)c1/C=C/O`
Response line: 0.979 (inactive)

Prompt line: Looking for the measured normalized growth of `Cc1[nH]ncc1-c1ccccc1` , can you help?
Response line: 0.986 (inactive)
